Values compiled from paper PMC5389708.

# Subject of test: the molecule itself
# Protocol summary: cross-linking
Attribute measured: stoichiometry N
Just the number.

Incoming: Name the recorded stoichiometry N of the item human APOBEC3C S188I (enzyme) MNPQIRNPMKAMYPGTFYFQFKNLWEANDRNETWLCFTVEGIKRRSVVSWKTGVFRNQVDSETHCHAERCFLSWFCDDILSPNTKYQVTWYTSWSPCPDCAGEVAEFLARHSNVNLTIFTARLYYFQYPCYQEGLRSLSQEGVAVEIMDYEDFKYCWENFVYNDNEPFKPWKGLKTNFRLLKRRLREILQ in your answer.
Outgoing: 2

Incoming: Name the recorded stoichiometry N of the item gorilla APOBEC3C K115N (enzyme) MNPQIRNPMKAMYPGTFYFQFKNLWEANDRNETWLCFTVEGIKRRSVVSWKTGVFRNQVDSETHCHAERCFLSWFCDDILSPNTNYQVTWYTSWSPCPECAGEVAEFLARHSNVNLTIFTARLYYFQYPCYQVGLRSLSQEGVAVEIMDYEDFKYCWENFVYNDNEPFKPWKGLKTNFRLLKRRLRESLQ in your answer.
Outgoing: 2
